Test: Tmax in rat at 10 mg/kg, po by CARRS
Format: ADME, organism-based
Parameters: dose 10 mg/kg, route oral
Details: in vivo
recorded-metric: Tmax (h)

// known answers, use as guide
* O=c1c2sc3ncc4cc[nH]c4c3c2ncn1-c1ccc(Cl)cc1 | 0.5
* O=c1c2sc3ncc4c(c3c2ncn1-c1ccc(Cl)cc1)NCCO4 | 1
* COc1ccc(-n2cnc3c(sc4ncc5cc[nH]c5c43)c2=O)cc1 | 2
* Cc1ccc(-n2cnc3c(sc4ncc5c(c43)NCCO5)c2=O)cc1 | 1
* Cc1ccc(-n2cnc3c(sc4ncc5cc[nH]c5c43)c2=O)cc1 | 0.5
* COc1ccc(-n2cnc3c(sc4nccc(N(C)C)c43)c2=O)cc1 | 0.5
* COc1ccc(-n2cnc3c(sc4ncc5c(c43)NCCO5)c2=O)cc1 | 2

P = C[C@H]1CNc2c(cnc3sc4c(=O)n(-c5ccc(Cl)cc5)cnc4c23)O1
Q = C[C@@H]1CNc2c(cnc3sc4c(=O)n(-c5ccc(Cl)cc5)cnc4c23)O1
I'm curious whether P or Q has the smaller Tmax number. Which is it? I would appreciate it if you answered with the label of your choice.
Q
(Q: 0.5 h, P: 2 h)

====

Molecular target: Metabotropic glutamate receptor 1 (Rattus norvegicus)
recorded-metric: Ki (nM)

* C[C@@H]1COc2cnc3sc4c(=O)n(-c5ccc(Cl)cc5)cnc4c3c2N1 | 9.1
* Cc1ccc(-n2cnc3c(sc4ncc5cn[nH]c5c43)c2=O)cc1 | 17.8
* C[C@H]1COc2cnc3sc4c(=O)n(-c5ccc(Cl)cc5)cnc4c3c2N1 | 0.5
* Cc1ccc(-n2cnc3c(sc4ncc5c(c43)NCCO5)c2=O)cc1 | 0.5

P = Cc1ccc(-n2cnc3c(sc4ncc5c(c43)NC[C@@H](C)O5)c2=O)cc1
Q = O=c1c2sc3ncc4c(c3c2ncn1-c1ccc(Cl)cc1)NCCO4
Kindly identify which of P and Q has the larger recorded Ki value. I would appreciate it if you answered with the label of your choice.
P
(P: 0.6 nM, Q: 0.4 nM)

====

Assay: Cmax in rat at 10 mg/kg, po by CARRS
Assay type: ADME, organism-based
Set-up: dose 10 mg/kg, route oral
Conditions: in vivo
recorded-metric: Cmax (nM)

A = COc1ccc(-n2cnc3c(sc4ncc5c(c43)NCCO5)c2=O)cc1
B = O=c1c2sc3ncc4c(c3c2ncn1-c1ccc(Cl)cc1)NCCO4
C = O=c1c2sc3ncc4cc[nH]c4c3c2ncn1-c1ccc(Cl)cc1
In a descending ranking, list each entry from above by its Cmax, from the largest value down to the smallest. Dear reader, please state the labels in the requested order.
A, B, C

====

Test: AUC (0 to 6 hrs) in rat at 10 mg/kg, po by CARRS
Type: ADME, organism-based
Design: time < 6 hr, dose 10 mg/kg, route oral
Conditions: plasma
recorded-metric: AUC(0-t) at 6 h (µM·h)

// known answers, use as guide
• Cc1ccc(-n2cnc3c(sc4ncc5c(c43)NCCO5)c2=O)cc1 = 0.077
• COc1ccc(-n2cnc3c(sc4ncc5cc[nH]c5c43)c2=O)cc1 = 1.32
• C[C@H]1CNc2c(cnc3sc4c(=O)n(-c5ccc(Cl)cc5)cnc4c23)O1 = 8.43
• Cc1ccc(-n2cnc3c(sc4ncc5cc[nH]c5c43)c2=O)cc1 = 0.035
• COc1ccc(-n2cnc3c(sc4ncc5c(c43)NCCO5)c2=O)cc1 = 1.56
• COc1ccc(-n2cnc3c(sc4nccc(N(C)C)c43)c2=O)cc1 = 1.93
• C[C@@H]1CNc2c(cnc3sc4c(=O)n(-c5ccc(Cl)cc5)cnc4c23)O1 = 5.19

1 = O=c1c2sc3ncc4cc[nH]c4c3c2ncn1-c1ccc(Cl)cc1
2 = O=c1c2sc3ncc4c(c3c2ncn1-c1ccc(Cl)cc1)NCCO4
Kindly identify which of 1 and 2 has the larger recorded AUC(0-t) at 6 h value. I would appreciate it if you answered with the label of your choice.
2
(2: 0.366 µM·h, 1: 0.018 µM·h)

====

Target: Metabotropic glutamate receptor 1 (Homo sapiens, UniProt Q13255)
Sequence (Q13255 whole entry): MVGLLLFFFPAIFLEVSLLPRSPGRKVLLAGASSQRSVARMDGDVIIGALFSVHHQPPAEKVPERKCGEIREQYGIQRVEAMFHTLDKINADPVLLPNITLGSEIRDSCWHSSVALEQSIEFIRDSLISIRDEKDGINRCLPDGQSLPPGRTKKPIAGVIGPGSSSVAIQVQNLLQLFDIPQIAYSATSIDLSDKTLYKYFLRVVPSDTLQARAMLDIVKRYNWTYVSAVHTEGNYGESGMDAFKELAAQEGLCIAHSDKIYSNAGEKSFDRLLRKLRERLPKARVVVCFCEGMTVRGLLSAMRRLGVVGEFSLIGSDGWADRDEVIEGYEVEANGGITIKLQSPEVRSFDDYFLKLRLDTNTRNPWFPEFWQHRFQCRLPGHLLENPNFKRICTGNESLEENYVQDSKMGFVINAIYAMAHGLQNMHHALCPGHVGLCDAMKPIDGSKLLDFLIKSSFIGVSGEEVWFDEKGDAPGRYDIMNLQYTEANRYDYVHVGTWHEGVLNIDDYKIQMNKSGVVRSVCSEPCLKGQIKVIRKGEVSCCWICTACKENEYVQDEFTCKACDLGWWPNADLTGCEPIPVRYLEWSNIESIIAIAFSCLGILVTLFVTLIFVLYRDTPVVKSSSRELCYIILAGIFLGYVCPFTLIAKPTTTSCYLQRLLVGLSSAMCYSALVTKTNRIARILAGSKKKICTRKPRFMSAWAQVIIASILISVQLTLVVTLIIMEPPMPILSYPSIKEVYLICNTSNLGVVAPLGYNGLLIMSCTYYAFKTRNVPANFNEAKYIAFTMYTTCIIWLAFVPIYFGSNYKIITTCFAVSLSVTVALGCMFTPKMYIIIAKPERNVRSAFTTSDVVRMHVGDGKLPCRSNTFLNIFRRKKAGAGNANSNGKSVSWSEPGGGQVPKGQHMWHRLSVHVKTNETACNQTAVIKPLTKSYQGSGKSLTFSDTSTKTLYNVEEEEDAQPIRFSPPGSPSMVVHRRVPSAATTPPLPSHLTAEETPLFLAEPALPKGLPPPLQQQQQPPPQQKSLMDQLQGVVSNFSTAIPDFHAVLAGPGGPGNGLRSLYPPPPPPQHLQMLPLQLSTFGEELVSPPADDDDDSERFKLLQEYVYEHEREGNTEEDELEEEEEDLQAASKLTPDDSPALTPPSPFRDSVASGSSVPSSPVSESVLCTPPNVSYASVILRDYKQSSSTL
Test: Antagonist activity at human mGluR1a expressed in CHO cells assessed by measuring intracellular calcium by FLIPR assay
pIC50: −log10 of the molar value.
recorded-metric: pIC50

// known answers, use as guide
* COc1ccc(-n2cnc3c(sc4ncc5c(c43)NC[C@@H](C)O5)c2=O)cc1 | 8.62
* C[C@@H]1COc2cnc3sc4c(=O)n(-c5ccc(Cl)cc5)cnc4c3c2N1 | 7.61

A = COc1ccc(-n2cnc3c(sc4nccc(N(C)C)c43)c2=O)cc1
B = Cc1ccc(-n2cnc3c(sc4ncc5sc(=O)[nH]c5c43)c2=O)cc1
I'm curious whether A or B has the smaller pIC50 number. Which is it? I would appreciate it if you answered with the label of your choice.
B

====

Test: Cmax in rat at 10 mg/kg, po by CARRS
Type: ADME, organism-based
Parameters: dose 10 mg/kg, route oral
Details: in vivo
recorded-metric: Cmax (nM)

// known answers, use as guide
* Cc1ccc(-n2cnc3c(sc4ncc5c(c43)NCCO5)c2=O)cc1 | 70
* COc1ccc(-n2cnc3c(sc4ncc5cc[nH]c5c43)c2=O)cc1 | 394
* COc1ccc(-n2cnc3c(sc4nccc(N(C)C)c43)c2=O)cc1 | 564

I = Cc1ccc(-n2cnc3c(sc4ncc5cc[nH]c5c43)c2=O)cc1
II = C[C@H]1CNc2c(cnc3sc4c(=O)n(-c5ccc(Cl)cc5)cnc4c23)O1
I'm curious whether I or II has the smaller Cmax number. Which is it? I would appreciate it if you answered with the label of your choice.
I
(I: 71 nM, II: 2050 nM)

====

Target: Metabotropic glutamate receptor 1 (Rattus norvegicus, UniProt P23385)
Sequence (P23385 whole entry): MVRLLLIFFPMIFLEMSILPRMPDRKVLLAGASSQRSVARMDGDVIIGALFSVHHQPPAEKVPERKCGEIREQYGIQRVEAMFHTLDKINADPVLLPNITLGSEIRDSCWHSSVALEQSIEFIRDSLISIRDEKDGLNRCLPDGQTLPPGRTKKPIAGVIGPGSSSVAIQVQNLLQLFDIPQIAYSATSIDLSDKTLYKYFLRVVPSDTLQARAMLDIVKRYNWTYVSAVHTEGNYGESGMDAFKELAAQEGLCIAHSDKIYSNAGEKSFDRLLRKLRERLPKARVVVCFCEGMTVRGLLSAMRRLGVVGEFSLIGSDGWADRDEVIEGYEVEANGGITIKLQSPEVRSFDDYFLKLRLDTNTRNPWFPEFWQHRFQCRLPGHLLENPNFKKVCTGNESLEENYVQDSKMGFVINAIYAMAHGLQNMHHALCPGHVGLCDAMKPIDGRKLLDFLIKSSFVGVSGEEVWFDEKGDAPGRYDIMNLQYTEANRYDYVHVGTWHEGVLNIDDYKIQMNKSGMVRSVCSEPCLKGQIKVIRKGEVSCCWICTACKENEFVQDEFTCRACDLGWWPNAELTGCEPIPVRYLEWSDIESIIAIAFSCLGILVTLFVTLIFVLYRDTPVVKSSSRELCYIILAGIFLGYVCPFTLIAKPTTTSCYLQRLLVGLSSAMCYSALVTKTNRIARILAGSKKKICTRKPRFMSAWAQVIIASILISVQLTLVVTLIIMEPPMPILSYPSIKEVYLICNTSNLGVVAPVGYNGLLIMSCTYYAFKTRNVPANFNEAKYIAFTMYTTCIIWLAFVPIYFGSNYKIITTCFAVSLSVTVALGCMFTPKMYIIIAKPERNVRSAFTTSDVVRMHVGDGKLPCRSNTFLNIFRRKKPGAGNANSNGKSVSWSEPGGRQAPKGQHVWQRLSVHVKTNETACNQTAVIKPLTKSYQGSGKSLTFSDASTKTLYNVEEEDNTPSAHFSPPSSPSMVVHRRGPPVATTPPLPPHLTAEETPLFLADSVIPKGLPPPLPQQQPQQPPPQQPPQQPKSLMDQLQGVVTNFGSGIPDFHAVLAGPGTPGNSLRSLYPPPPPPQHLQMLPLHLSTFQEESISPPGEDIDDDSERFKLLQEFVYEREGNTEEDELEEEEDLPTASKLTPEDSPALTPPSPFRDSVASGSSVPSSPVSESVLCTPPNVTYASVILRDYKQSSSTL
pKi: −log10 of the molar value.
recorded-metric: pKi

// known answers, use as guide
• O=c1c2sc3ncc4nc[nH]c4c3c2ncn1-c1ccc(Cl)cc1 = 7.97
• Cc1ccc(-n2cnc3c(sc4ncc5sc(=S)[nH]c5c43)c2=O)cc1 = 6.00
• COc1ccc(-n2cnc3c(sc4ncc5cc[nH]c5c43)c2=O)cc1 = 7.54

A = C[C@H]1CNc2c(cnc3sc4c(=O)n(-c5ccc(Cl)cc5)cnc4c23)O1
B = O=c1c2sc3ncc4cn[nH]c4c3c2ncn1-c1ccc(Cl)cc1
C = COc1ccc(-n2cnc3c(sc4nccc(N(C)C)c43)c2=O)cc1
rank_up(items): orders items by reported pKi in ascending numerical order. Dear reader, please state the labels in the requested order.
B, C, A
